I'd be grateful if you could share measured EC50 for these entries.
Biological target: Voltage-dependent N-type calcium channel subunit alpha-1B (Rattus norvegicus, UniProt Q02294)
Sequence (Q02294 whole entry): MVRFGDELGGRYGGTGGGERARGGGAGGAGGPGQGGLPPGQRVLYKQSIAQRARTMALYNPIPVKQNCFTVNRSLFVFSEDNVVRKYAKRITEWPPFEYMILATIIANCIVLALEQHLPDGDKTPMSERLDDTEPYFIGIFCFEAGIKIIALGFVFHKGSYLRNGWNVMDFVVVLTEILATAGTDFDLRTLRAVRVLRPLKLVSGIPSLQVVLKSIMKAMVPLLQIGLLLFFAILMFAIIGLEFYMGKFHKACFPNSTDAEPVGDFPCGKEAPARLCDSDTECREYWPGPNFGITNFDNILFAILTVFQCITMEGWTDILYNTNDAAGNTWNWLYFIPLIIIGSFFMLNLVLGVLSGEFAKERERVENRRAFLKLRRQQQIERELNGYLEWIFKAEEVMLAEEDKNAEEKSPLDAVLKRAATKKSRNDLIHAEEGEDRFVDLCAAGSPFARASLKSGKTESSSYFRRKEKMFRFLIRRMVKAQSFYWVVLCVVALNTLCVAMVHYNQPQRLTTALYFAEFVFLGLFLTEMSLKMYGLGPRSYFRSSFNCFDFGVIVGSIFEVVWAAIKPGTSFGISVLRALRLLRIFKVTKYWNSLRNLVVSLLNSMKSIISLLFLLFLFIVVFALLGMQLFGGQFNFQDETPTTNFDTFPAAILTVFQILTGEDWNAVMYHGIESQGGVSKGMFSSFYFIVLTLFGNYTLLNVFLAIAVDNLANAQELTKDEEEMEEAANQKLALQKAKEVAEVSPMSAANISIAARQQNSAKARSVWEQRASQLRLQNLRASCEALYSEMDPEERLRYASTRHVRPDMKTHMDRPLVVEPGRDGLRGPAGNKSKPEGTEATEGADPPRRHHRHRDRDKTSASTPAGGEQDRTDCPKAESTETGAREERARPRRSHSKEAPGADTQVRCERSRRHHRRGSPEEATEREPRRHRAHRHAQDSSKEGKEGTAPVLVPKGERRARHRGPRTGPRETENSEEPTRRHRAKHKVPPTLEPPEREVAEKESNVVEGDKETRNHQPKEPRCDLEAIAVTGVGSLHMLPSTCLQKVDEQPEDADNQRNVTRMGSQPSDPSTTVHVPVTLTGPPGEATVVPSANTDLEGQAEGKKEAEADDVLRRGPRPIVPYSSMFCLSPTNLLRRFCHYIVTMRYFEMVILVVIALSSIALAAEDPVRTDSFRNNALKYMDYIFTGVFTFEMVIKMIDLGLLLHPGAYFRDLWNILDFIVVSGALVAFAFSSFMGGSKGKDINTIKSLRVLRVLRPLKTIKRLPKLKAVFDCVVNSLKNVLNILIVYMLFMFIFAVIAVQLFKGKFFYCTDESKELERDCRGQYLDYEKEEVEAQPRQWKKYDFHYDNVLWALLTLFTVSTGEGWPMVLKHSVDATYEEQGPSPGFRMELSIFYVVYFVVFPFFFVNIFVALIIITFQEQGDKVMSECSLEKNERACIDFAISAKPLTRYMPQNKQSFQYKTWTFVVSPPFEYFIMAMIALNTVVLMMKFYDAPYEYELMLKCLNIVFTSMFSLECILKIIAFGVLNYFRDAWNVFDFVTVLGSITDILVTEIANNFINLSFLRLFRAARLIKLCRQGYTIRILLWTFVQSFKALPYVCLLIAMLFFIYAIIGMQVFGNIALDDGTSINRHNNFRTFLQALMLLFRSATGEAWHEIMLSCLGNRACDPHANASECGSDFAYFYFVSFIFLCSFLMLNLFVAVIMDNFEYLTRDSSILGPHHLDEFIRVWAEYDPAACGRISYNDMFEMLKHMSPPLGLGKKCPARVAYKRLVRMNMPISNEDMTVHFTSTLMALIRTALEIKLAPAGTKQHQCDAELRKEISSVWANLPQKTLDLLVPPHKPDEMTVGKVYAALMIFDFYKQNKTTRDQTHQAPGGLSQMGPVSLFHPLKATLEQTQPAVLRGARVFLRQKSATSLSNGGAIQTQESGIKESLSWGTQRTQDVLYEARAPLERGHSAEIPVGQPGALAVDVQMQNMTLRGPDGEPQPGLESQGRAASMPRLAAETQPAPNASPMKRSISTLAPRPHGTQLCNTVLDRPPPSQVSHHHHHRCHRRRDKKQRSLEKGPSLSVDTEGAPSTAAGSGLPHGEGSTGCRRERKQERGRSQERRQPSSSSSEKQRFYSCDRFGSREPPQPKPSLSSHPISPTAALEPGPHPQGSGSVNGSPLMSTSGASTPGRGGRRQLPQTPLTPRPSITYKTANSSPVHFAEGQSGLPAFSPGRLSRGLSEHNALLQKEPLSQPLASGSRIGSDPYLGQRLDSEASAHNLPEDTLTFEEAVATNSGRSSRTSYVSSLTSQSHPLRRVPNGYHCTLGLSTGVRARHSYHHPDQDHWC
Test: Displacement of [125I]GVIA from Cav2.2 channel in rat brain by scintillation counting
Assay type: tissue-based
Conditions: read-out: EC50
Provide the reading as a plain figure in µM.

I'd like to know its EC50. The compound in question is `NC(N)=NCCCCCCCC(=O)Nc1ccc(OCCCN=C(N)N)cc1C(=O)Nc1ccc(Oc2ccc(O)cc2)cc1`
16

I'd like to know its EC50. The compound in question is `NC(N)=NCCCCCCCC(=O)Nc1ccc(OCCCCN=C(N)N)cc1C(=O)Nc1ccc(Oc2ccccc2)cc1`
15

I'd like to know its EC50. The compound in question is `NC(N)=NCCCCCC(=O)Nc1ccc(OCCCCN=C(N)N)cc1C(=O)Nc1ccc(Oc2ccccc2)cc1`
17
